Listed here: compounds with reported IC50 for UniProtKB P25044.
Sequence (P25044 whole entry): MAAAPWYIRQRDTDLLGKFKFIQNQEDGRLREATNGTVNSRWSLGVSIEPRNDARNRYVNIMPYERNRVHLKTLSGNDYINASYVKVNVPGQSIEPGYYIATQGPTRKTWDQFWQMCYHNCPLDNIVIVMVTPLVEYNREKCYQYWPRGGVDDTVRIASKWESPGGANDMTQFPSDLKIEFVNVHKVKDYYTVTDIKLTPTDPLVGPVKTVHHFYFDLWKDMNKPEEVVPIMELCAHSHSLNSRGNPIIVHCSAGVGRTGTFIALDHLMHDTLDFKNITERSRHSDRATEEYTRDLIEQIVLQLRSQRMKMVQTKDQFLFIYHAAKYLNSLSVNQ
Give bare numbers, in µM.

Field: example entries. Status: answers known.
{"compound": "O=C1c2ccccc2C(=O)c2c1cc(S(=O)(=O)O)c(O)c2O", "measurementTarget": "UniProtKB P25044", "unitSpec": "µM", "endpointResult": 48}
{"compound": "O=C1OC2(c3ccc(O)cc3Oc3cc(O)ccc32)c2ccccc21", "measurementTarget": "UniProtKB P25044", "unitSpec": "µM", "endpointResult": 850}
{"compound": "Cc1cc(-c2ccc(/N=N/c3ccc4c(S(=O)(=O)O)cc(S(=O)(=O)O)c(N)c4c3O)c(C)c2)ccc1/N=N/c1ccc2c(S(=O)(=O)O)cc(S(=O)(=O)O)c(N)c2c1O", "measurementTarget": "UniProtKB P25044", "unitSpec": "µM", "endpointResult": 1.2}

For every item in the list below, what is its measured IC50?
1. Cc1cc(-c2ccc(/N=N/c3c(S(=O)(=O)O)cc4cc(S(=O)(=O)O)cc(N)c4c3O)c(C)c2)ccc1/N=N/c1c(S(=O)(=O)O)cc2cc(S(=O)(=O)O)cc(N)c2c1O
2. O=S(=O)(O)c1cc(O)c2c(O)cc(S(=O)(=O)O)cc2c1 [CHROMOTROPATE]
3. O=C(O)c1cc(N=Nc2ccc([N+](=O)[O-])cc2)ccc1O

Reply text:
[7.4, 6.5, 630]

For every item in the list below, what is its measured IC50?
1. Cc1c(C(=O)O)c(O)cc2c1C(=O)c1c(O)c([C@H]3O[C@H](CO)[C@@H](O)[C@H](O)[C@H]3O)c(O)c(O)c1C2=O
2. O=S(=O)(O)c1cc(S(=O)(=O)O)c2c(N=Nc3c(O)cc(S(=O)(=O)O)c4ccccc34)c(O)c(S(=O)(=O)O)cc2c1

Reply text:
[15, 110]

* * *

assayText: Inhibition of human Leukocyte Antigen Related(LAR) protein tyrosine phosphatase D1
outcomeMeasure: pIC50
Numbers only, as −log10 of the molar value.

For every item in the list below, what is its measured pIC50?
1. Cc1cc(-c2ccc(/N=N/c3c(S(=O)(=O)O)cc4cc(S(=O)(=O)O)cc(N)c4c3O)c(C)c2)ccc1/N=N/c1c(S(=O)(=O)O)cc2cc(S(=O)(=O)O)cc(N)c2c1O
2. Cc1[nH]n(-c2ccccc2)c(=O)c1N=Nc1c(O)cc(S(=O)(=O)O)c2ccccc12

Reply text:
[3.77, 3.18]

* * *

Provide the reported IC50 of each item.
measurementTarget: Tyrosine-protein phosphatase non-receptor type 1 (Homo sapiens, UniProt P18031)
Sequence (P18031 whole entry): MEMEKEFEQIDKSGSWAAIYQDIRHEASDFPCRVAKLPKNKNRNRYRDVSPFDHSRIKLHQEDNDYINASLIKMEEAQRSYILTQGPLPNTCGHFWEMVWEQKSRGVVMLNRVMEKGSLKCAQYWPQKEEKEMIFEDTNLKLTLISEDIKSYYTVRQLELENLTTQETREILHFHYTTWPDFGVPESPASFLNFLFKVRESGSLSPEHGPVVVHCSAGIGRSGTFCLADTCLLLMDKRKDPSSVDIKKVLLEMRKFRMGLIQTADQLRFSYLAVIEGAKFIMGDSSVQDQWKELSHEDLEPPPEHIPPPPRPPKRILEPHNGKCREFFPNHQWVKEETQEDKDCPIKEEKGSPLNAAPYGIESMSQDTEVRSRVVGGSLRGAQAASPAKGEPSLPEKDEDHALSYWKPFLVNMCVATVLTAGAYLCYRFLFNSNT
Answers are plain numbers, in µM.

Field: example entries. Status: answers known.
{"molecule": "Cc1cc(-c2ccc(/N=N/c3c(S(=O)(=O)O)cc4cc(S(=O)(=O)O)cc(N)c4c3O)c(C)c2)ccc1/N=N/c1c(S(=O)(=O)O)cc2cc(S(=O)(=O)O)cc(N)c2c1O [TRYPAN BLUE]", "IC50 (µM)": 3.9}
{"molecule": "O=C1OC2(c3ccc(O)cc3Oc3cc(O)ccc32)c2ccccc21 [FLUORESCEIN]", "IC50 (µM)": 600}
{"molecule": "O=S(=O)(O)c1cc(O)c2c(O)cc(S(=O)(=O)O)cc2c1 [CHROMOTROPATE]", "IC50 (µM)": 9.7}
{"molecule": "C/C(=C1/C=CC(=O)C(C(=O)O)=C1)c1ccc(O)c(C(=O)O)c1", "IC50 (µM)": 5.2}

For every item in the list below, what is its measured IC50?
1. Cc1[nH]n(-c2ccccc2)c(=O)c1N=Nc1c(O)cc(S(=O)(=O)O)c2ccccc12
2. O=S(=O)(O)c1cc(S(=O)(=O)O)c2c(N=Nc3c(O)cc(S(=O)(=O)O)c4ccccc34)c(O)c(S(=O)(=O)O)cc2c1 [E126]

Reply text:
[150, 460]

* * *

assayText: Inhibition of human Leukocyte Antigen Related(LAR) protein tyrosine phosphatase D1
Provide the reported pIC50 of each item.
Give bare numbers, as −log10 of the molar value.

For every item in the list below, what is its measured pIC50?
1. O=S(=O)(O)c1cc(O)c2c(O)cc(S(=O)(=O)O)cc2c1 [CHROMOTROPATE]
2. Cc1cc(-c2ccc(/N=N/c3ccc4c(S(=O)(=O)O)cc(S(=O)(=O)O)c(N)c4c3O)c(C)c2)ccc1/N=N/c1ccc2c(S(=O)(=O)O)cc(S(=O)(=O)O)c(N)c2c1O [EVANS BLUE]
3. O=C1c2ccccc2C(=O)c2c1cc(S(=O)(=O)O)c(O)c2O [Alizarin Red S]
4. COc1cc(S(=O)(=O)O)c(C)cc1N=Nc1c(O)ccc2cc(S(=O)(=O)O)ccc12 [E129]

Reply text:
1: 3.24; 2: 4.21; 3: 4.09; 4: 4.05
